experimental.system: cloned human dopamine D3 receptors (Homo sapiens)
Construct: expressed in transfected cells; membrane homogenate
measurement.description: [N-Methyl-3H]Spiroperidol binding to cloned human dopamine D3 receptors
condition.context: read-out: D3 Ki
Classification field. Basis: Ki. Definitions: label 0 (below 9 nM), label 1 (9 nM to below 40 nM), label 2 (40 nM or more)

| compound | category.label |
| --- | --- |
| CCC1CCC(NC(=O)C2CC2CN2CCC(c3cc4cc(OC)cc(Br)c4o3)CC2)CC1 (racemic) | label 2 |
| O=C([C@@H]1C[C@H]1CN1CCN(c2csc3cc(C(F)(F)F)ccc23)CC1)N1CCN(CCOCCO)CC1 | label 2 |
| O=C(NC1CCN(Cc2cc(F)ccc2Cl)CC1)C1CC1CN1CCC(c2noc3ccsc23)CC1 (racemic) | label 1 |
| O=C(NC1CCN(Cc2ccc(F)cc2)CC1)C1CC1CN1CCC(c2noc3ccsc23)CC1 (racemic) | label 0 |
| COc1cccc2c(C3CCN(C[C@@H]4C[C@H]4C(=O)NCCCN4CCCCC4)CC3)noc12 | label 2 |
| O=C(NC1CCN(Cc2ccc(Cl)c(Cl)c2)CC1)[C@@H]1C[C@H]1CN1CCC(c2cc3ccccc3s2)CC1 | label 0 |
| COc1ccc(CCNC(=O)C2CC2CN2CCC(c3noc4ccsc34)CC2)cc1OC (racemic) | label 1 |
| CC(C)(C)OC(=O)N1CCCCC1CCNC(=O)[C@@H]1C[C@H]1CN1CCN(c2csc3cc(C(F)(F)F)ccc23)CC1 (mixture of isomers) | label 2 |
| O=C(C1CC1CN1CCC(c2noc3ccsc23)CC1)N1CCN(S(=O)(=O)C=Cc2ccccc2)CC1 (racemic) | label 2 |
| O=C(NCCc1cccc(F)c1)C1CC1CN1CCC(c2noc3ccsc23)CC1 (racemic) | label 1 |
| O=C(NCCCn1ccnc1)[C@@H]1C[C@H]1CN1CCC(c2nn(CC(F)(F)F)c3ccsc23)CC1 | label 0 |
| O=C(NCCCc1ccccc1)[C@@H]1C[C@H]1CN1CCC(c2nn(-c3ccc(C(F)(F)F)cc3)c3ccccc23)CC1 | label 2 |
| CC(C)(C)OC(=O)N1CCC(NC(=O)C2CC2CN2CCC(c3noc4ccsc34)CC2)CC1 (racemic) | label 2 |
| O=C(C1CC1CN1CCC(c2noc3ccsc23)CC1)N1CCC(c2cc(-c3cccs3)[nH]n2)CC1 (racemic) | label 2 |
| CC(C)(C)OC(=O)N1CCC(CNC(=O)[C@@H]2C[C@H]2CN2CCC(c3noc4ccsc34)CC2)CC1 | label 1 |
| CC1CCC(NC(=O)C2CC2CN2CCCN(c3noc4ccsc34)CC2)CC1 (racemic) | label 1 |
| CC1CCC(NC(=O)C2CC2CN2CCC(n3c(=O)[nH]c4ccccc43)CC2)CC1 (racemic) | label 2 |
| O=C(C1CC1CN1CCC(c2noc3ccsc23)CC1)N1CCN(CC2CCCCC2)CC1 (racemic) | label 1 |
| O=C(NCCCc1ccccc1)[C@@H]1C[C@H]1CN1CCC(c2noc3ccsc23)CC1 | label 0 |
| O=C(NC1CCN(Cc2ccc(F)cc2F)CC1)[C@@H]1C[C@H]1CN1CCN(c2csc3cc(C(F)(F)F)ccc23)CC1 | label 1 |
| O=C(NC1CCN(Cc2ncc[nH]2)CC1)C1CC1CN1CCC(c2noc3ccsc23)CC1 (racemic) | label 0 |
| O=C(NCCc1c[nH]c2ccccc12)[C@@H]1C[C@H]1CN1CCN(c2csc3cc(C(F)(F)F)ccc23)CC1 | label 0 |
| C[C@H]1CC[C@H](NC(=O)[C@@H]2C[C@H]2CN2CCC(c3nn(-c4ccccc4)c4ccsc34)CC2)CC1 | label 0 |
| O=C(NCc1ccc2ccccc2c1)C1CC1CN1CCC(c2noc3ccsc23)CC1 (racemic) | label 0 |
| O=C([C@@H]1C[C@H]1CN1CCC(c2noc3ccsc23)CC1)N1CCc2ccccc2C1 | label 0 |
| CN1CCC[C@@H]1CCNC(=O)[C@@H]1C[C@H]1CN1CCN(c2csc3cc(C(F)(F)F)ccc23)CC1 | label 2 |

* * *

experimental.system: cloned human alpha-1A adrenergic receptors (α1a) (Homo sapiens, UniProt P35348)
Construct: expressed in transfected cells; membranes
Sequence (P35348 whole entry): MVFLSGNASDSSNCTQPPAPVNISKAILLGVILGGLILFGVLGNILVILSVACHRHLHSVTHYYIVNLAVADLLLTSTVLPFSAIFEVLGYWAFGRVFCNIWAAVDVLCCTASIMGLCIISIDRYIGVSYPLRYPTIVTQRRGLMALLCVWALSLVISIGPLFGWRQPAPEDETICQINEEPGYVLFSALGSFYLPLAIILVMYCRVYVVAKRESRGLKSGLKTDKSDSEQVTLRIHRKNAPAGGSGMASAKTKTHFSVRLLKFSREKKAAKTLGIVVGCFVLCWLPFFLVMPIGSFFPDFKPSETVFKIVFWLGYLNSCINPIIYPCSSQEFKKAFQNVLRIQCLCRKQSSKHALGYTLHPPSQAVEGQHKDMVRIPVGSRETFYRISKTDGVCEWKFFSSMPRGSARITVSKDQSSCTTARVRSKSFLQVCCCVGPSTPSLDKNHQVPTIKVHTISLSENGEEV
measurement.description: [3H]Prazosin binding to cloned human alpha-1A adrenergic receptors expressed in CHO cells
condition.context: read-out: halpha1Ki (nM) h = human
The threshold is 20 nM. Values of Ki beneath it are tagged Satisfied; values meeting or exceeding it are tagged Not satisfied.

| compound | category.label |
| --- | --- |
| O=C(CCCN1CCN(c2csc3cc(C(F)(F)F)ccc23)CC1)NC1CCCC1 | Not satisfied |
| O=C(CCCN1CCN(c2csc3cc(F)ccc23)CC1)NC1CCCCC1 | Satisfied |
| CN(C(=O)CCCN1CCN(c2csc3cc(F)ccc23)CC1)C1CCCCC1 | Satisfied |
| CC1CCN(C(=O)CCCN2CCN(c3csc4cc(F)ccc34)CC2)CC1 | Satisfied |
| O=C(CCCN1CCN(c2csc3cc(F)ccc23)CC1)N1CCC(O)CC1 | Satisfied |
| CC1CCN(C(=O)CCCN2CCN(c3csc4cc(C(F)(F)F)ccc34)CC2)CC1 | Not satisfied |
| O=C(CCCN1CCN(c2csc3cc(F)ccc23)CC1)NC1CCCC1 (racemic) | Satisfied |
| CCOC(=O)[C@H]1CC[C@H](NC(=O)CCCN2CCN(c3csc4cc(F)ccc34)CC2)CC1 | Satisfied |
| O=C(CCCN1CCN(c2csc3cc(F)ccc23)CC1)N1CCC(N2CCCC2)CC1 | Satisfied |
| CC1CCCN(C(=O)CCCN2CCN(c3csc4cc(F)ccc34)CC2)C1 (stereo not drawn) | Satisfied |
| CCOC(=O)C1CCN(C(=O)CCCN2CCN(c3csc4cc(C(F)(F)F)ccc34)CC2)CC1 | Not satisfied |
| CC1CC(C)CN(C(=O)CCCN2CCN(c3csc4cc(C(F)(F)F)ccc34)CC2)C1 (stereo not drawn) | Not satisfied |
| CC1CCCN(C(=O)CCCN2CCN(c3csc4cc(C(F)(F)F)ccc34)CC2)C1 (stereo not drawn) | Not satisfied |
| O=C(CCCN1CCN(c2csc3cc(C(F)(F)F)ccc23)CC1)N1CCC(O)CC1 | Not satisfied |
| CC1CCCN1C(=O)CCCN1CCN(c2csc3cc(C(F)(F)F)ccc23)CC1 (stereo not drawn) | Not satisfied |
| CC1CCCC(NC(=O)CCCN2CCN(c3csc4cc(F)ccc34)CC2)C1 (stereo not drawn) | Satisfied |
| CN(C)C1CCN(C(=O)CCCN2CCN(c3csc4cc(F)ccc34)CC2)C1 (stereo not drawn) | Not satisfied |
| CC1CCCC(NC(=O)CCCN2CCN(c3csc4cc(C(F)(F)F)ccc34)CC2)C1 (racemic) | Not satisfied |
| CC1(C)CCCN(C(=O)CCCN2CCN(c3csc4cc(F)ccc34)CC2)C1 (racemic) | Satisfied |
| O=C(CCCN1CCN(c2csc3cc(C(F)(F)F)ccc23)CC1)N1CCCC1 | Not satisfied |
| CCN(C(=O)CCCN1CCN(c2csc3cc(F)ccc23)CC1)C1CCCCC1 | Not satisfied |
| CC1CCCN1C(=O)CCCN1CCN(c2csc3cc(F)ccc23)CC1 (stereo not drawn) | Satisfied |
| C[C@H]1CC[C@H](NC(=O)CCCN2CCN(c3csc4cc(F)ccc34)CC2)CC1 | Not satisfied |
| O=C(CCCN1CCN(c2csc3cc(C(F)(F)F)ccc23)CC1)N1CCC(N2CCCC2)CC1 | Not satisfied |
| CCOC(=O)C1CCN(C(=O)CCCN2CCN(c3csc4cc(F)ccc34)CC2)CC1 | Satisfied |
| CC1CCCCN1C(=O)CCCN1CCN(c2csc3cc(F)ccc23)CC1 (stereo not drawn) | Satisfied |
| CN(C(=O)CCCN1CCN(c2csc3cc(C(F)(F)F)ccc23)CC1)C1CCCCC1 | Not satisfied |

* * *

The compounds listed here are annotated with their pKi.
experimental.system: cloned human dopamine D3 receptors (Homo sapiens, UniProt P35462)
Construct: expressed in transfected cells; membrane homogenate
Sequence (P35462 whole entry): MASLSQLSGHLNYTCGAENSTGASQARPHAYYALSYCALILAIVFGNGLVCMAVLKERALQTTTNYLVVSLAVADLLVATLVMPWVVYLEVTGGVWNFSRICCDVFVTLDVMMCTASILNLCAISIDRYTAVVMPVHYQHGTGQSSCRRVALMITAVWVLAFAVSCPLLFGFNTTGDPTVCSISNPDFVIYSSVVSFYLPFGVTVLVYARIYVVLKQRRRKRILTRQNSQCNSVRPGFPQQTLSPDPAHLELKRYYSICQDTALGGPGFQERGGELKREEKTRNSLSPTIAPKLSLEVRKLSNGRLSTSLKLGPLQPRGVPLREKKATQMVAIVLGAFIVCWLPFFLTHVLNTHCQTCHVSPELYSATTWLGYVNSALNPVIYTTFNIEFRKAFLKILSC
measurement.description: [N-Methyl-3H]Spiroperidol binding to cloned human dopamine D3 receptors
condition.context: read-out: D3 Ki
pKi: −log10 of the molar value.

| compound | pKi |
| --- | --- |
| CC1CCC(NC(=O)C2CC2CN2CCCN(c3onc4c3CCc3ccccc3-4)CC2)CC1 (racemic) | 7.13 |
| O=C(NCCCc1cc[nH]c1)[C@@H]1C[C@H]1CN1CCN(c2csc3cc(C(F)(F)F)ccc23)CC1 | 7.60 |
| Cn1nc(C2CCN(C[C@@H]3C[C@H]3C(=O)N[C@H]3CC[C@H](C)CC3)CC2)c2ccc(Br)cc21 | 7.74 |
| O=C(NC1CCN(Cc2cccnc2)CC1)[C@@H]1C[C@H]1CN1CCC(c2noc3ccsc23)CC1 | 8.52 |
| CN1C2CCC1CC(NC(=O)[C@@H]1C[C@H]1CN1CCN(c3csc4cc(C(F)(F)F)ccc34)CC1)C2 (stereo partly shown) | 8.31 |
| O=C(N[C@H]1CC[C@H](O)CC1)[C@@H]1C[C@H]1CN1CCC(c2cc3ccccc3s2)CC1 | 8.26 |
| Cc1ncc([N+](=O)[O-])n1CCNC(=O)[C@@H]1C[C@H]1CN1CCC(c2noc3ccsc23)CC1 | 7.33 |

Entry source: patent US7772252B2
